# System: KRAS patient-derived spheroids with HUVEC/MSC, viability;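 note: spheroids exposed to agents for 7 days; 100% = DMSO vehicle control viability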
# PROTOCOL: Anticancer human tumor 323965-272-R-J2-PDC patient-derived pancreatic carcinoma cell line growth inhibition [KRAS2]
# TEST CONTEXT: second compound 10 µM; first compound 0.0316 µM; stronger effect = lower value
Measured viability, T/C, listed per entry for reference.
Expressed in %, but write only the number.

// worked examples, viability, T/C included
[
  {
    "COMPOUND": "CC1COCCN1c1cc(-c2ccnn2C)c2ccnc(-c3ccn[nH]3)c2n1 (stereo not given) + C=CC(=O)N1CCN(c2nc(=O)n(-c3c(C)ccnc3C(C)C)c3nc(-c4c(O)cccc4F)c(F)cc23)C(C)C1",
    "TARGET UNDER TEST": "KRAS patient-derived spheroids with HUVEC/MSC, viability",
    "UNIT OF MEASUREMENT": "%",
    "viability, T/C": 17.4
  },
  {
    "COMPOUND": "CC1OCC2(CCN(c3cnc(Sc4ccnc(N)c4Cl)c(N)n3)CC2)C1N (stereo not given) + COc1cc2nc(C)nc(NC(C)c3cc(N)cc(C(F)(F)F)c3)c2cc1OC1CCOC1",
    "TARGET UNDER TEST": "KRAS patient-derived spheroids with HUVEC/MSC, viability",
    "UNIT OF MEASUREMENT": "%",
    "viability, T/C": 49.2
  },
  {
    "COMPOUND": "CC1OCC2(CCN(c3cnc(Sc4ccnc(N)c4Cl)c(N)n3)CC2)C1N (stereo not given) + CNCc1ccccc1-c1csc(C(C)Nc2nc(C)nc3cc(OC)c(OC)cc23)c1",
    "TARGET UNDER TEST": "KRAS patient-derived spheroids with HUVEC/MSC, viability",
    "UNIT OF MEASUREMENT": "%",
    "viability, T/C": 0.33
  },
  {
    "COMPOUND": "CC(C)NCC(C(=O)N1CCN(c2ncnc3c2C(C)CC3O)CC1)c1ccc(Cl)cc1 (stereo not given) + CNCc1ccccc1-c1csc(C(C)Nc2nc(C)nc3cc(OC)c(OC)cc23)c1",
    "TARGET UNDER TEST": "KRAS patient-derived spheroids with HUVEC/MSC, viability",
    "UNIT OF MEASUREMENT": "%",
    "viability, T/C": 0.27
  },
  {
    "COMPOUND": "CC(=O)OC12COC1CC(O)C1(C)C(=O)C(O)C3=C(C)C(OC(=O)C(O)C(NC(=O)OC(C)(C)C)c4ccccc4)CC(O)(C(OC(=O)c4ccccc4)C21)C3(C)C (stereo not given) + C=CC(=O)N1CCN(c2nc(=O)n(-c3c(C)ccnc3C(C)C)c3nc(-c4c(O)cccc4F)c(F)cc23)C(C)C1",
    "TARGET UNDER TEST": "KRAS patient-derived spheroids with HUVEC/MSC, viability",
    "UNIT OF MEASUREMENT": "%",
    "viability, T/C": 19.6
  },
  {
    "COMPOUND": "CC(=O)OC12COC1CC(O)C1(C)C(=O)C(O)C3=C(C)C(OC(=O)C(O)C(NC(=O)OC(C)(C)C)c4ccccc4)CC(O)(C(OC(=O)c4ccccc4)C21)C3(C)C (stereo not given) + CC1OCC2(CCN(c3cnc(Sc4ccnc(N)c4Cl)c(N)n3)CC2)C1N",
    "TARGET UNDER TEST": "KRAS patient-derived spheroids with HUVEC/MSC, viability",
    "UNIT OF MEASUREMENT": "%",
    "viability, T/C": 16.5
  }
]

# input Please indicate viability, T/C recorded for CC(=O)OC12COC1CC(O)C1(C)C(=O)C(O)C3=C(C)C(OC(=O)C(O)C(NC(=O)OC(C)(C)C)c4ccccc4)CC(O)(C(OC(=O)c4ccccc4)C21)C3(C)C (stereo not given) + CNCc1ccccc1-c1csc(C(C)Nc2nc(C)nc3cc(OC)c(OC)cc23)c1
# output 0.14

# input Please indicate viability, T/C recorded for COc1cc(Nc2ncc3c(n2)-c2ccc(Cl)cc2C(c2c(F)cccc2OC)=NC3)ccc1C(=O)O + CC1OCC2(CCN(c3cnc(Sc4ccnc(N)c4Cl)c(N)n3)CC2)C1N
# output 29.9

# input Please indicate viability, T/C recorded for CC1COCCN1c1cc(-c2ccnn2C)c2ccnc(-c3ccn[nH]3)c2n1 (stereo not given) + CC1OCC2(CCN(c3cnc(Sc4ccnc(N)c4Cl)c(N)n3)CC2)C1N
# output 5.12

# input Please indicate viability, T/C recorded for COc1cc(Nc2ncc3c(n2)-c2ccc(Cl)cc2C(c2c(F)cccc2OC)=NC3)ccc1C(=O)O + COc1cc2nc(C)nc(NC(C)c3cc(N)cc(C(F)(F)F)c3)c2cc1OC1CCOC1
# output 63.4
